experiment: AUC in Sprague-Dawley rat at 0.3 mg/kg administered as multiple dose after 8 days; assay type: ADME, organism-based; design: dose 0.3 mg/kg; details: plasma
parameter.measured: AUC at 192 h (ng·h/mL)
State the answer as a number, implicitly in ng·h/mL.

Exam item: Answer with the recorded AUC at 192 h for the compound listed here: "Cc1cc(SCc2nc(-c3ccc(Cl)c(Cl)c3)ns2)ccc1OC(C)(C)C(=O)O"
Marked response: 2400

----------
target: Peroxisome proliferator-activated receptor alpha (Homo sapiens, UniProt Q07869); assay: Agonist activity at human PPARalpha-Gal4 in HEK293 cells by luciferase reporter assay
Sequence (Q07869 whole entry, the tested form may be a part): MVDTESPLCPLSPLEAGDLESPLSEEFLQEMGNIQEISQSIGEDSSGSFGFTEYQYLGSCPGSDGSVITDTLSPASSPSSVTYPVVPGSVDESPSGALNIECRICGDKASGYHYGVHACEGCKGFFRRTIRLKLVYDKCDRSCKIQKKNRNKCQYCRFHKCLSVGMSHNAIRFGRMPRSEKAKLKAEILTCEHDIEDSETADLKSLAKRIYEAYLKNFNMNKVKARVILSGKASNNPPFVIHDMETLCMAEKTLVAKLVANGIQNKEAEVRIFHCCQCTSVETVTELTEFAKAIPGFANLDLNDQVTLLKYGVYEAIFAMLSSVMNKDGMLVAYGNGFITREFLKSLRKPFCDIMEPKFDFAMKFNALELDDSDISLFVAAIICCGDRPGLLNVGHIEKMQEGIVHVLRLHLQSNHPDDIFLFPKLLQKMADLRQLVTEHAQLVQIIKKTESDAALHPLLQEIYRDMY
parameter.measured: pEC50
In plain terms, pEC50 is the concentration in mol/L turned into minus its base-10 logarithm.

CC(C)(Oc1ccc(SCc2nc(-c3ccc(C(F)(F)F)cc3)ns2)cc1)C(=O)O	6.81
Cc1cc(SCc2cc(-c3ccc(C(F)(F)F)cc3)ns2)ccc1OCC(=O)O	5.89
Cc1cc(OCc2nc(-c3ccc(C(F)(F)F)c(F)c3)ns2)ccc1OC(C)(C)C(=O)O	7.07
Cc1ccc(-c2nsc(CSc3ccc(OC(C)(C)C(=O)O)c(C)c3)n2)cc1Cl	7.15

Pending compound:
Exam item: Give a short answer stating reported pEC50 for "Cc1cc(SCc2nc(-c3ccc(Cl)c(Cl)c3)ns2)ccc1OC(C)(C)C(=O)O" .
Marked response: 7.00

----------
assay: Cmax in ob/ob C57BL/6J-leptin deficient obese mouse at 0.3 mg/kg administered as multiple dose after 11 days; assay type: ADME, organism-based; design: dose 0.3 mg/kg; conditions: in vivo
parameter.measured: Cmax (ng/mL)
Your answer is read as ng/mL, so omit the unit and give the number.

Exam item: Quickly give me recorded Cmax for "Cc1cc(SCc2nc(-c3ccc(Cl)c(Cl)c3)ns2)ccc1OC(C)(C)C(=O)O"
Marked response: 1840

----------
experiment: Half life in ob/ob C57BL/6J-leptin deficient obese mouse at 3 mg/kg administered as single dose on day 11; type: ADME, organism-based; design: dose 3 mg/kg; details: in vivo
parameter.measured: half-life (h)
Numeric only. Scale: h

Exam item: Answer with reported half-life of "Cc1cc(SCc2nc(-c3ccc(Cl)c(Cl)c3)ns2)ccc1OC(C)(C)C(=O)O"
Marked response: 5.1

----------
assay: Half life in ob/ob C57BL/6J-leptin deficient obese mouse at 3 mg/kg administered as multiple dose after 11 days; assay type: ADME, organism-based; parameters: dose 3 mg/kg; conditions: in vivo
parameter.measured: half-life (h)
Number in h, nothing else.

Exam item: Please give the documented half-life of "Cc1cc(SCc2nc(-c3ccc(Cl)c(Cl)c3)ns2)ccc1OC(C)(C)C(=O)O"
Marked response: 6.7

----------
assay: Cmax in Sprague-Dawley rat at 1 mg/kg administered as multiple dose after 8 days; format: ADME, organism-based; parameters: dose 1 mg/kg; details: in vivo
parameter.measured: Cmax
Put your answer as a value accompanied by its unit after it.

Exam item: Let me know recorded Cmax for "Cc1cc(SCc2nc(-c3ccc(Cl)c(Cl)c3)ns2)ccc1OC(C)(C)C(=O)O" , thanks.
Marked response: 1360 ng/mL

----------
test: AUC in Beagle dog at 3 mg/kg administered as multiple dose after 7 days; format: ADME, organism-based, Canis lupus familiaris; set-up: dose 3 mg/kg; conditions: plasma
parameter.measured: AUC at 168 h (ng·h/mL)
Response body: numeric value in ng·h/mL, unit text excluded.

Exam item: Please indicate AUC at 168 h recorded for "Cc1cc(SCc2nc(-c3ccc(Cl)c(Cl)c3)ns2)ccc1OC(C)(C)C(=O)O"
Marked response: 24100

----------
assay: Cmax in Beagle dog at 10 mg/kg administered as multiple dose after 7 days; format: ADME, organism-based, Canis lupus familiaris; parameters: dose 10 mg/kg; conditions: in vivo
parameter.measured: Cmax (ng/mL)
Write the number in ng/mL without appending the unit.

Exam item: Tell us which Cmax value is on record for "Cc1cc(SCc2nc(-c3ccc(Cl)c(Cl)c3)ns2)ccc1OC(C)(C)C(=O)O"
Marked response: 10100

----------
assay: Cmax in Beagle dog at 3 mg/kg administered as multiple dose after 7 days; format: ADME, organism-based, Canis lupus familiaris; set-up: dose 3 mg/kg; details: in vivo
parameter.measured: Cmax (ng/mL)
The answer is to be given in ng/mL; state only the numeric part.

Exam item: Using known records, supply Cmax for "Cc1cc(SCc2nc(-c3ccc(Cl)c(Cl)c3)ns2)ccc1OC(C)(C)C(=O)O"
Marked response: 6710

----------
assay: AUC in Sprague-Dawley rat at 1 mg/kg administered as multiple dose after 8 days; type: ADME, organism-based; design: dose 1 mg/kg; settings: plasma
parameter.measured: AUC at 192 h (ng·h/mL)
Give the quantity in ng·h/mL, number only.

Exam item: Return reported AUC at 192 h. Input compound: "Cc1cc(SCc2nc(-c3ccc(Cl)c(Cl)c3)ns2)ccc1OC(C)(C)C(=O)O"
Marked response: 13900

----------
experiment: AUC in ob/ob C57BL/6J-leptin deficient obese mouse at 3 mg/kg administered as single dose on day 11; format: ADME, organism-based; design: dose 3 mg/kg; details: plasma
parameter.measured: AUC (µg·h/mL)
// return numeric value only (unit: µg·h/mL, not printed)

Exam item: Answer with the recorded AUC for the compound listed here: "Cc1cc(SCc2nc(-c3ccc(Cl)c(Cl)c3)ns2)ccc1OC(C)(C)C(=O)O"
Marked response: 115

----------
assay: Half life in Sprague-Dawley rat at 3 mg/kg administered as multiple dose after 8 days; type: ADME, organism-based; design: dose 3 mg/kg; conditions: in vivo
parameter.measured: half-life (h)
Just the number in h, nothing appended.

Exam item: Please report half-life for the following compound: "Cc1cc(SCc2nc(-c3ccc(Cl)c(Cl)c3)ns2)ccc1OC(C)(C)C(=O)O"
Marked response: 7.1

----------
experiment: Half life in Beagle dog at 0.3 mg/kg administered as multiple dose after 7 days; format: ADME, organism-based, Canis lupus familiaris; parameters: dose 0.3 mg/kg; settings: in vivo
parameter.measured: half-life (h)
Your answer is read as h, so omit the unit and give the number.

Exam item: Write down half-life measured for item "Cc1cc(SCc2nc(-c3ccc(Cl)c(Cl)c3)ns2)ccc1OC(C)(C)C(=O)O"
Marked response: 6.5

----------
test: Cmax in ob/ob C57BL/6J-leptin deficient obese mouse at 0.1 mg/kg administered as multiple dose after 11 days; type: ADME, organism-based; set-up: dose 0.1 mg/kg; conditions: in vivo
parameter.measured: Cmax (ng/mL)
I only need the number, in ng/mL, no unit after it.

Exam item: Give reported Cmax value for "Cc1cc(SCc2nc(-c3ccc(Cl)c(Cl)c3)ns2)ccc1OC(C)(C)C(=O)O"
Marked response: 480

----------
target: Peroxisome proliferator-activated receptor alpha (Homo sapiens) (UniProt Q07869); test: Agonist activity at human PPARalpha-Gal4 in HEK293 cells by luciferase reporter assay relative to (S)-2-{2-[1-ethyl-3-(4-trifluoro-methoxyphenyl)ureido]indan-5-ylsulfanyl}-2-methylpropionic acid; format: functional, cell-based
parameter.measured: Efficacy

Consider the worked cases shown below.
Cc1cc(OCc2nc(-c3ccc(C(F)(F)F)c(F)c3)ns2)ccc1OC(C)(C)C(=O)O	65%
Cc1cc(SCc2nc(-c3ccc(OC(F)(F)F)c(Cl)c3)ns2)ccc1OC(C)(C)C(=O)O	73%
Cc1cc(SCc2nc(-c3ccc(Cl)cc3Cl)ns2)ccc1OC(C)(C)C(=O)O	33%
Cc1cc(SCc2nc(-c3ccc(C(F)(F)F)c(F)c3)ns2)ccc1OC(C)(C)C(=O)O	53%
Cc1ccc(-c2nsc(COc3ccc(OC(C)(C)C(=O)O)c(C)c3)n2)cc1C	58%

Exam item: Supply Efficacy measured with Peroxisome proliferator-activated receptor alpha (Homo sapiens) (UniProt Q07869) for "Cc1ccc(-c2nsc(CSc3ccc(OC(C)(C)C(=O)O)c(C)c3)n2)cc1C" .
Marked response: 45%

Exam item: State Efficacy (Peroxisome proliferator-activated receptor alpha (Homo sapiens) (UniProt Q07869)) of "Cc1cc(SCc2nc(-c3ccc(C(F)(F)F)cc3)ns2)ccc1OCC(=O)O" .
Marked response: 42%

Exam item: Report Efficacy on Peroxisome proliferator-activated receptor alpha (Homo sapiens) (UniProt Q07869) for this entry: "Cc1ccc(-c2nsc(CSc3ccc(OC(C)(C)C(=O)O)c(C)c3)n2)cc1Cl"
Marked response: 74%

Exam item: State measured Efficacy of the molecule "Cc1cc(SCc2nsc(-c3ccc(C(F)(F)F)cc3)n2)ccc1OC(C)(C)C(=O)O" with Peroxisome proliferator-activated receptor alpha (Homo sapiens) (UniProt Q07869).
Marked response: 38%

Exam item: Check Peroxisome proliferator-activated receptor alpha (Homo sapiens) (UniProt Q07869) data and give Efficacy for "Cc1cc(SCc2nc(-c3ccc(OC(F)(F)F)cc3)ns2)ccc1OC(C)(C)C(=O)O" .
Marked response: 44%

Exam item: State Efficacy (Peroxisome proliferator-activated receptor alpha (Homo sapiens) (UniProt Q07869)) of "Cc1cc(OCc2nc(-c3ccc(OC(F)(F)F)cc3)ns2)ccc1OC(C)(C)C(=O)O" .
Marked response: 80%

Exam item: Fill in Efficacy for "Cc1cc(OCc2nc(-c3ccc(C(F)(F)F)cc3)ns2)ccc1OC(C)(C)C(=O)O" tested with Peroxisome proliferator-activated receptor alpha (Homo sapiens) (UniProt Q07869).
Marked response: 71%

Exam item: Send back Peroxisome proliferator-activated receptor alpha (Homo sapiens) (UniProt Q07869) Efficacy of "Cc1cc(SCCc2nc(-c3ccc(C(F)(F)F)cc3)ns2)ccc1OC(C)(C)C(=O)O" only.
Marked response: 65%

Exam item: // output Efficacy; input "Cc1cc(SCCc2nc(-c3ccc(Cl)c(Cl)c3)ns2)ccc1OC(C)(C)C(=O)O" ; system Peroxisome proliferator-activated receptor alpha (Homo sapiens) (UniProt Q07869)
Marked response: 71%

Exam item: Find Efficacy for "Cc1ccc(-c2nsc(COc3ccc(OC(C)(C)C(=O)O)c(C)c3)n2)cc1Cl" on Peroxisome proliferator-activated receptor alpha (Homo sapiens) (UniProt Q07869) and write it down.
Marked response: 75%

Exam item: Determine reported Efficacy for "Cc1cc(SCc2cc(-c3ccc(C(F)(F)F)cc3)ns2)ccc1OCC(=O)O" ; test system: Peroxisome proliferator-activated receptor alpha (Homo sapiens) (UniProt Q07869).
Marked response: 43%

Exam item: Report value: Efficacy, system: Peroxisome proliferator-activated receptor alpha (Homo sapiens) (UniProt Q07869), molecule: "Cc1cc(SCc2nsc(-c3ccc(OC(F)(F)F)cc3)n2)ccc1OC(C)(C)C(=O)O"
Marked response: 47%

Exam item: Report measured Efficacy on Peroxisome proliferator-activated receptor alpha (Homo sapiens) (UniProt Q07869); entry: "Cc1cc(SCc2cc(-c3ccc(C(F)(F)F)cc3)on2)ccc1OCC(=O)O"
Marked response: 41%

Exam item: Write down the reported Efficacy (system: Peroxisome proliferator-activated receptor alpha (Homo sapiens) (UniProt Q07869)) of "Cc1cc(SCc2nc(-c3ccc(OC(F)(F)F)cc3)ns2)ccc1OC1(C(=O)O)CCCC1"
Marked response: 31%

Exam item: System Peroxisome proliferator-activated receptor alpha (Homo sapiens) (UniProt Q07869). Read-out Efficacy. Item "Cc1cc(SCc2nc(-c3ccc(Cl)cc3)ns2)ccc1OC(C)(C)C(=O)O" . Report value.
Marked response: 38%

Exam item: Under Peroxisome proliferator-activated receptor alpha (Homo sapiens) (UniProt Q07869): report Efficacy of "Cc1cc(SCc2cc(-c3ccc(C(F)(F)F)cc3)sn2)ccc1OCC(=O)O" .
Marked response: 43%

Exam item: Provide the reported Efficacy (system: Peroxisome proliferator-activated receptor alpha (Homo sapiens) (UniProt Q07869)) for "Cc1cc(OCc2nc(-c3ccc(OC(F)(F)F)c(Cl)c3)ns2)ccc1OC(C)(C)C(=O)O"
Marked response: 101%

Values were extracted from ChEMBL document CHEMBL1143875.
